Cited source: paper PMC9405553

Target: T1, ecMutS (Escherichia coli, UniProt P23909 1-853)
T1 sequence: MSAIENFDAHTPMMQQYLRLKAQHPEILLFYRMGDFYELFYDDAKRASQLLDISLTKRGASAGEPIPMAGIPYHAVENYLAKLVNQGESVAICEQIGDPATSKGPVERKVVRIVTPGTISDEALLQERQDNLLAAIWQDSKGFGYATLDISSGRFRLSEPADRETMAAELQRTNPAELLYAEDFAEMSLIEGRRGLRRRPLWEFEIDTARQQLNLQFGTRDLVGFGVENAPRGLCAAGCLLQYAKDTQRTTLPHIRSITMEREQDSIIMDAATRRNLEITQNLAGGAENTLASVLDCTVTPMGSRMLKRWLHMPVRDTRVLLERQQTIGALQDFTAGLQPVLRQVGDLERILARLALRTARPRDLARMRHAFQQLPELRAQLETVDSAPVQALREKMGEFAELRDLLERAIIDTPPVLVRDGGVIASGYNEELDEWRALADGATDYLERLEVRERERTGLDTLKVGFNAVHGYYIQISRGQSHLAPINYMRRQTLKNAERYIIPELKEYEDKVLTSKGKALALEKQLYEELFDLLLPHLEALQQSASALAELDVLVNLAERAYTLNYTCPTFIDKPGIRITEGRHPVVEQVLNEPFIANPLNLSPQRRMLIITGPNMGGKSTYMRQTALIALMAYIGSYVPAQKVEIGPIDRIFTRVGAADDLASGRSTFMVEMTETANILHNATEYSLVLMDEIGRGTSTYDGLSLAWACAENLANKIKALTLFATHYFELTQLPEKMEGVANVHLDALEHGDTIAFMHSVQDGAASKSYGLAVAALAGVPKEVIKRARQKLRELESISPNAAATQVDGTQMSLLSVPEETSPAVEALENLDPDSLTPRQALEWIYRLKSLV
Assay: EMSA; 1 mM ADP, 5 mM MgCl2; ecMutS: 20 mM HEPES-KOH pH 7.9, 5 mM MgCl2, 120 mM KCl, 0.5 mg/mL BSA, 1 mM ADP, 37 C 15 min, 5 nM DNA; ecMutL/ngMutL: 20 mM HEPES pH 8.0, 100 mM KCl, 0.5 mg/mL BSA, 1 mM DTT, on ice 10 min, 20 nM DNA; gels in TAE at 4 C
Details: protein: recombinant; tags: N-terminal His6; chain copies: 2; label: 5'-TAMRA; three stacked parallel intramolecular G4s
Give measured pKd for each item. Keep answers brief.
Give bare numbers, as −log10 of the molar value.

Here are 3 binders together with their reported answers.
Binder	Reported Measurement
WT-5' (structured_DNA) DNA: GCCGCGGAAAGGAAGGGGAGGGGCTGGGAGGGCCCGGAGGGGGCTGGGCCGGGGACCCGGGAGGGGTCGGGACGGGGCGGGGTCCGCGCGGAGGAG	7.82
G242,243A-5' (structured_DNA) DNA: GCCGCGGAAAGGAAGGGGAGGGGCTGGGAGGGCCCGGAGGGGGCTGGGCCGGAAACCCGGGAGGGGTCGGGACGGGGCGGGGTCCGCGCGGAGGAG	7.57
G250A-5' (structured_DNA) DNA: GCCGCGGAAAGGAAGGGGAGGGGCTGGGAGGGCCCGGAGGGGGCTGGGCCGGGGACCCGGAAGGGGTCGGGACGGGGCGGGGTCCGCGCGGAGGAG	7.52

# evaluate next
Notebook: G228A-5' (structured_DNA) DNA: GCCGCGGAAAGGAAGGGGAGGGGCTGGGAGGGCCCGGAAGGGGCTGGGCCGGGGACCCGGGAGGGGTCGGGACGGGGCGGGGTCCGCGCGGAGGAG , pKd read as 7.62
